Parameter IC50: see the listing below.
- targetSystem: HSP90α protein (N-terminal) (Homo sapiens, UniProt P07900)
- Construct: purchased BPS Bioscience #50298
- methodDescription: HSP90α-binding fluorescent polarization (FP) assay, competition with BODIPY-labeled RNK04010
- studyConditions: probe RNK04010 (BODIPY-labeled) 5 nM, 25° C. 300 min

Here is how some compounds turned out for IC50.
[[record]]
compound = "Cc1sc2c(c1C)C(c1ccc(Cl)cc1)=NC(CC(=O)N1CCC(CN3CCN(Cc4ccc(-n5c(O)nnc5-c5cc(C(C)C)c(O)cc5O)cc4)CC3)CC1)c1nnc(C)n1-2 (centres unmarked) [Compound 1]"
measuredattribute = "IC50"
value = "100 to 1000 nM"

[[record]]
compound = "Cc1cc(C(=O)N2Cc3ccc(CN4CCN(C(=O)C[C@@H]5N=C(c6ccc(Cl)cc6)c6c(sc(C)c6C)-n6c(C)nnc65)CC4)c(F)c3C2)c(O)cc1O [Compound 99]"
measuredattribute = "IC50"
value = "> 1000 nM"

[[record]]
compound = "CCOc1cc(N2CCC(C(=O)NCCCNC(=O)O[C@H]3CC[C@H](Nc4cc(-n5nc(C(F)(F)F)c6c5CC(C)(C)CC6=O)ccc4C(N)=O)CC3)CC2)ccc1Nc1ncc2c(n1)N(C)c1ccccc1C(=O)N2C [Compound 150]"
measuredattribute = "IC50"
value = "> 1000 nM"


Reported IC50 for Cc1sc2c(c1C)C(c1ccc(Cl)cc1)=N[C@@H](CC(=O)N1CCC(Cc3ccc(CN(C)Cc4ccc(-n5c(C(=O)NCC(F)(F)F)nnc5-c5cc(C(C)C)c(O)cc5O)cc4)cn3)CC1)c1nnc(C)n1-2 [Compound 109] was 100 to 1000 nM

Reported IC50 for Cc1sc2c(c1C)C(c1ccc(Cl)cc1)=N[C@@H](CC(=O)N1CCC(CN3CCN(Cc4ccc(-n5c(C(=O)NC(C)C)nnc5-c5ccc(O)cc5O)cc4)CC3)CC1)c1nnc(C)n1-2 [Compound 91] was < 100 nM

====

- targetSystem: HSP90α protein (N-terminal) (Homo sapiens, UniProt P07900)
- Construct: purchased BPS Bioscience #50298
- methodDescription: HSP90α-binding fluorescent polarization (FP) assay, competition with BODIPY-labeled RNK04010
- studyConditions: probe RNK04010 (BODIPY-labeled) 5 nM, 25° C. 300 min
Parameter IC50: see the listing below.

Here is how some compounds turned out for IC50.
[[record]]
molecularstring = "CCCc1cc(-c2nnc(O)n2-c2ccc(CN3CCN(C(=O)C4CCN(c5ccc(Nc6ncc7c(n6)N(C)c6ccccc6C(=O)N7C)c(OCC)c5)CC4)CC3)cc2)c(O)cc1O"
targetsystem = "HSP90α protein (N-terminal) (Homo sapiens, UniProt P07900)"
value = "100 to 1000 nM"

[[record]]
molecularstring = "CCOc1cc(N2CCC(C(=O)N3CCC(COc4ccc(Nc5cc(-n6nc(C(F)(F)F)c7c6CC(C)(C)CC7=O)ccc5C(N)=O)cc4)CC3)CC2)ccc1Nc1ncc2c(n1)N(C)c1ccccc1C(=O)N2C"
targetsystem = "HSP90α protein (N-terminal) (Homo sapiens, UniProt P07900)"
value = "> 1000 nM"


Okay, now this compound:
Reported IC50 for COc1cccc(-c2cc(C(=O)Nc3ccc(-c4ccc(OC5CCN(C(=O)C[C@@H]6N=C(c7ccc(Cl)cc7)c7c(sc(C)c7C)-n7c(C)nnc76)CC5)cc4OCCN(C)C)cc3)ccc2OC)c1 was > 1000 nM
